Entry source: patent US20100267561A1

System: barnyardgrass (Echinochloa crus-galli)
Experiment: Test B flooded paddy test plant response
Type: in vivo
Conditions: Flood (flooded paddy test), 125 g ai/ha; scale 0 to 100, 0 no effect, 100 complete control
Catalogue of Plant response rating, Barnyardgrass values
Number, no unit, nothing else.

Solved cases below.
Prompt: Dear colleague, I am looking for the recorded Plant response rating, Barnyardgrass of the following compound: COc1ccc(-c2cc(C)n(-c3c(O)cnn(C)c3=O)n2)cc1 [Compound 62]
Completion: 0

Prompt: Return reported Plant response rating, Barnyardgrass; argument: Cc1cc(-c2ccc(Cl)cc2)nn1-c1c(OC(=S)N(C)C)cnn(C)c1=O [Compound 69]
Completion: 0

Prompt: What does the record list as Plant response rating, Barnyardgrass for Cc1cc(-c2ccc(Br)cc2)nn1-c1c(OC(=O)OC(C)C)cnn(C)c1=O [Compound 6] ?
Completion: 80

Prompt: Using the record for CCc1cc(-c2ccc(Cl)cc2)nn1-c1c(OC(=O)C(C)(C)C)cnn(C)c1=O [Compound 40] , report its Plant response rating, Barnyardgrass.
Completion: 100

Prompt: Please report the recorded Plant response rating, Barnyardgrass for CCc1cc(-c2ccc(Cl)c(Cl)c2)nn1-c1c(O)cnn(C)c1=O [Compound 20] .
Completion: 0

Now look at this entry.
Prompt: Dear colleague, I am looking for the recorded Plant response rating, Barnyardgrass of the following compound: CCc1cc(-c2ccc(C(F)(F)F)cc2)nn1-c1c(O)cnn(CC)c1=O [Compound 67]
Completion: 35
